Reference source: patent USRE48335E1

Positions of bridges follow the written chain, without caps; N, C: chain ends. Non-standard residues stand in square brackets, D forms with d. Residues, ends and D or L forms follow the SMILES beside them. *: point of attachment. X15 = O=C(c1ccc(Cl)c(F)c1)*; Octanoyl = CCCCCCCC(=O)*; Dab = NCC[C@H](N)C(=O)O; Abu = CC[C@H](N)C(=O)O; Dap = NC[C@H](N)C(=O)O
Hi! I'm sharing some Minimum inhibitory concentration, Ec FADDI-EC003 results obtained with Enterobacter cloacae.
Answers without a unit are incomplete; give the number and then its unit.

CCCCCCCC(=O)N[C@@H](CCN)C(=O)N[C@H](C(=O)N[C@@H](CN)C(=O)N[C@H]1CCNC(=O)[C@H]([C@@H](C)O)NC(=O)[C@H](CCN)NC(=O)[C@H](CN)NC(=O)[C@H]([C@@H](C)O)NC(=O)[C@@H](CC(C)C)NC(=O)[C@H](CCN)NC1=O)[C@@H](C)O [Compound 51] (Octanoyl-[Dab]T[Dap][Dab][Dab][dL]T[Dap][Dab]T; lactam 4-C) : 0.25 µg/mL

Could you now consider this next compound?
The observed Minimum inhibitory concentration, Ec FADDI-EC003 for CC[C@@H]1NC(=O)[C@@H](CC(C)C)NC(=O)[C@H](CCN)NC(=O)[C@@H](NC(=O)[C@H](CN)NC(=O)[C@@H](NC(=O)[C@H](CCN)NC(=O)c2ccc(Cl)c(F)c2)[C@@H](C)O)CCNC(=O)[C@H]([C@@H](C)O)NC(=O)[C@H](CCN)NC(=O)[C@H](CCN)NC1=O [Compound 107] (X15-[Dab]T[Dap][Dab][Dab][dL][Abu][Dab][Dab]T; lactam 4-C) when tested with Enterobacter cloacae stands at 0.25 µg/mL
